Molecular target: (NPNA)3 (Plasmodium falciparum)
Assay: SPR, antibody on chip
Overview of reported Kd across a group of binders:
reported_metric: Kd (nM)

{"columns": ["binder", "reading_unit", "recorded_value"],
 "data": [
  ["AB-007032 (antibody, V domains shown) VH: QVQLVESGGGVVQPGRSLRLSCAASGFTFSTYAMHWVRQAPGQGLQWVAVISYHSTNKYYEDSVRGRFTISRDNSKNTLYLQMNSLRAEDTAVYYCARDGYSSSFFDFWGQGTLVTVSS VL: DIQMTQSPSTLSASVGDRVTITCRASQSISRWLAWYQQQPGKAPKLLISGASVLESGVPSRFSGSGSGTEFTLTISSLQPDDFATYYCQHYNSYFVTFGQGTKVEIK", "nM", 13.6],
  ["AB-007058 (antibody, V domains shown) VH: QMQLVESGGGVVQPGRSLRLSCTASGFTFSTYAMHWVRQSPGQGLQWVAVISYHSTNKYYEDSVRGRFTISRDNSKNTLYLQMNSLRAEDTAVYYCARDGYSTSFFDFWGQGTLVTVSS VL: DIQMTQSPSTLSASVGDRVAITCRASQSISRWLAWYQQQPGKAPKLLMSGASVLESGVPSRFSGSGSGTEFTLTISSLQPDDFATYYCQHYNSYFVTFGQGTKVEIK", "nM", 339],
  ["AB-007035 (antibody, V domains shown) VH: QMQLVESGGGVVQPGRSLRLSCTASGFTFSSYAMHWVRQSPGQGLQWVAVISYHSTNKYYEDSVRGRFTISRDNSKNTLYLQMNSLRAEDTAVYYCARDGYSSSFFDFWGQGTLVTVSS VL: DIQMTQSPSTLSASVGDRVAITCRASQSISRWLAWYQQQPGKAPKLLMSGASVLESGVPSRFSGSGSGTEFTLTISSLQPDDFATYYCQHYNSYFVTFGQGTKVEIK", "nM", 5.73],
  ["AB-007036 (antibody, V domains shown) VH: QMQLVESGGGVVQPGRSLRLSCTASGFTFSTYAMHWVRQSPGQGLQWVAVISYDSTNKYYEDSVRGRFTISRDNSKNTLYLQMNSLRAEDTAVYYCARDGYSSSFFDFWGQGTLVTVSS VL: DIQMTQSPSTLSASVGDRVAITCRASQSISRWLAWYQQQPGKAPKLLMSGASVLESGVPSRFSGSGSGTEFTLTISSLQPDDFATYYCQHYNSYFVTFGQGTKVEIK", "nM", 33.5],
  ["AB-007030 (antibody, V domains shown) VH: QMQLVESGGGVVQPGRSLRLSCTASGFTFSTYAMHWVRQSPGQGLEWVAVISYHSTNKYYADSVRGRFTISRDNSKNTLYLQMNSLRAEDTAVYYCARDGYSSSFFDFWGQGTLVTVSS VL: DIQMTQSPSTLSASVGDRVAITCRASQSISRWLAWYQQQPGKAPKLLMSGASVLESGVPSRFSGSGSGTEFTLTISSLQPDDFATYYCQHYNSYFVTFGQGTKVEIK", "nM", 6.88],
  ["AB-007065 (antibody, V domains shown) VH: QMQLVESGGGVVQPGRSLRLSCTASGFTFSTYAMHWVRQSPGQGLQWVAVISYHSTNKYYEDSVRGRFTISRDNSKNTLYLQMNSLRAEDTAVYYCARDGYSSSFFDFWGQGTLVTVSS VL: DIQMTQSPSTLSASVGDRVAITCRASQSISRWLAWYQQQPGKAPKLLMSKASVLESGVPSRFSGSGSGTEFTLTISSLQPDDFATYYCQHYNSYFVTFGQGTKVEIK", "nM", 125],
  ["AB-007040 (antibody, V domains shown) VH: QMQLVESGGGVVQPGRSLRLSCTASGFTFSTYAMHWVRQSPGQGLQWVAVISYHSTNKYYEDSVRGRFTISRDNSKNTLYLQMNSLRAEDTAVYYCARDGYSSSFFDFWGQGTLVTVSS VL: DIQMTQSPSTLSASVGDRVAITCRASQSISRWLAWYQQQPGKAPKLLMSGASVLESGVPSRFSGSGSGTEFTLTISSLQPDDFATYYCQHYNSYYVTFGQGTKVEIK", "nM", 9.5],
  ["AB-007031 (antibody, V domains shown) VH: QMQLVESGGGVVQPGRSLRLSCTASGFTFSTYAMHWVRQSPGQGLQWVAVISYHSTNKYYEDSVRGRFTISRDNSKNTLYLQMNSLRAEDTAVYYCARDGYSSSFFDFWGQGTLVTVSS VL: DIQMTQSPSTLSASVGDRVAITCRASQSISRWLAWYQQQPGKAPKLLISGASVLESGVPSRFSGSGSGTEFTLTISSLQPDDFATYYCQHYNSYFVTFGQGTKVEIK", "nM", 8.02],
  ["AB-007072 (antibody, V domains shown) VH: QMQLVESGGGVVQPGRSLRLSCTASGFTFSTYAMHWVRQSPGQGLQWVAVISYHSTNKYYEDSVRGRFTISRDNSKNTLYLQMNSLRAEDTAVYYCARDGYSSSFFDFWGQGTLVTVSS VL: DIQMTQSPSTLSASVGDRVAITCRASQSISRWLAWYQQQPGKAPKLLMSGASNLESGVPSRFSGSGSGTEFTLTISSLQPDDFATYYCQHYNSYFVTFGQGTKVEIK", "nM", 73.9],
  ["AB-007063 (antibody, V domains shown) VH: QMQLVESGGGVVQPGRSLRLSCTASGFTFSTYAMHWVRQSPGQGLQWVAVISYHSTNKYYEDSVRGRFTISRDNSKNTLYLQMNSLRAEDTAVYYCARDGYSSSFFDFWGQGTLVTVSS VL: DIQMTQSPSTLSASVGDRVAITCRASQSISRWLAWYQQQPGKAPKLLMAGASVLESGVPSRFSGSGSGTEFTLTISSLQPDDFATYYCQHYNSYFVTFGQGTKVEIK", "nM", 14.1]
]}

FYI, the data here is from patent US20220195023A1.
